# Tested on: LXRa:RXRa (NR concentration 270 nM, RXRa partner concentration 90 nM)
# assay.protocol: PBM binding z-score (relative to random genomic background probes); higher = stronger binding; sequences stand for … in GC…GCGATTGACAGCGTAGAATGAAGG
Each entry gets N if its PBM binding z-score stays under 0.8, and Y if its PBM binding z-score is 0.8 or above.

Textbook exercise: given the entry `CCAGACAGGTGAAAGGTAACTAAGTCTGGTACGC` , state whether its PBM binding z-score is greater than or equal to 0.8.
N

Textbook exercise: given the entry `AGAACGAGGGCAATGAGTAGATAGCACGGGTGGC` , state whether its PBM binding z-score is greater than or equal to 0.8.
N

Textbook exercise: given the entry `ACAGACAGGTTATGAAGGTAACTCAGGCTATCAT` , state whether its PBM binding z-score is greater than or equal to 0.8.
Y

Textbook exercise: given the entry `CTTCCAAGGTCAAGGTCAGTGAAAGAGACTCGAA` , state whether its PBM binding z-score is greater than or equal to 0.8.
Y

Textbook exercise: given the entry `ATATGTAGGTTAGCTAGGGTCATTCAGACTAGGC` , state whether its PBM binding z-score is greater than or equal to 0.8.
Y

Textbook exercise: given the entry `ACAAACAGGTGAGTGAAGGTAACTCAGCTGGACG` , state whether its PBM binding z-score is greater than or equal to 0.8.
N

Textbook exercise: given the entry `TCTAGCAGGCCCGAGGGTCACTCAAGAGGTACGG` , state whether its PBM binding z-score is greater than or equal to 0.8.
Y

Textbook exercise: given the entry `GCGACTGGAGCATCAGCAGGTTACCATAACTTAA` , state whether its PBM binding z-score is greater than or equal to 0.8.
N

Textbook exercise: given the entry `AGTACAGGGTCATCGTAGGCCAGAGTACGCACAG` , state whether its PBM binding z-score is greater than or equal to 0.8.
Y

Textbook exercise: given the entry `CCTCCGAGGACAGAAGGTCAGAGCTGTCCGCTTT` , state whether its PBM binding z-score is greater than or equal to 0.8.
Y

Textbook exercise: given the entry `CCGACTCGGGCAAAGGTTACCATACTCAGTACGA` , state whether its PBM binding z-score is greater than or equal to 0.8.
Y

Textbook exercise: given the entry `TCTAGTTGGTCACGGAGGTCATACACGACGGGTA` , state whether its PBM binding z-score is greater than or equal to 0.8.
Y

Textbook exercise: given the entry `TGAATCAGGTTATAAGATCAGGGAACGTTGCAAA` , state whether its PBM binding z-score is greater than or equal to 0.8.
N

Textbook exercise: given the entry `CGAACTAGGTCATCCAGAACAGTGAATACATTGA` , state whether its PBM binding z-score is greater than or equal to 0.8.
Y

Textbook exercise: given the entry `AGATTGAGGTTAAGATCAGGGAAACAGAATACAT` , state whether its PBM binding z-score is greater than or equal to 0.8.
Y

Textbook exercise: given the entry `GCTCCTAGGTCAACTGATGGTCAGCTAAAGCTCG` , state whether its PBM binding z-score is greater than or equal to 0.8.
Y

Textbook exercise: given the entry `CGAACTAGGTCATTGGCAGGACAGTGAATAGTAA` , state whether its PBM binding z-score is greater than or equal to 0.8.
Y

Textbook exercise: given the entry `CCAACGAGGGCATGAGTTGATAGCAAATGCCGAT` , state whether its PBM binding z-score is greater than or equal to 0.8.
N

Textbook exercise: given the entry `AATACAGGGTCATCGTAGGCCAGAGGACGCACAG` , state whether its PBM binding z-score is greater than or equal to 0.8.
Y

Textbook exercise: given the entry `CGTCAAAGTTCAAGGTAGCGTAACAGAAAGCAGC` , state whether its PBM binding z-score is greater than or equal to 0.8.
Y

Textbook exercise: given the entry `TCTGCTAGGTCAACGATGGTAAGCTAATCTGCTA` , state whether its PBM binding z-score is greater than or equal to 0.8.
Y

Textbook exercise: given the entry `ATCTCTAGGTATCAAGTTCAGTGAAAGAGAGGAC` , state whether its PBM binding z-score is greater than or equal to 0.8.
N

Textbook exercise: given the entry `AGTCAAAGTTCAAGACGAGGTAACGTAAAGCACG` , state whether its PBM binding z-score is greater than or equal to 0.8.
Y

Textbook exercise: given the entry `CGAACTAGGTCAACCAGGACAGTGAATACATTGA` , state whether its PBM binding z-score is greater than or equal to 0.8.
Y

Textbook exercise: given the entry `GCGAATGGGGCAAAGCAGGTTACCATAAGGTTGG` , state whether its PBM binding z-score is greater than or equal to 0.8.
N

Textbook exercise: given the entry `ATCGAAAGGTGGAAGGTGAGTATACCCACCCGAA` , state whether its PBM binding z-score is greater than or equal to 0.8.
N
